Target: Sushi domains (SD1/2) protein of the GABAB1a (GB1a) subunit, recombinant
Sequence (Q9Z0U4 29-158): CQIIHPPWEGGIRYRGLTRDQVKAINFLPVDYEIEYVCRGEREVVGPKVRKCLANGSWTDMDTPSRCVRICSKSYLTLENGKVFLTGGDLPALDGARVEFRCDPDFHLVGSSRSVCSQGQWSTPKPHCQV
Assay: FP competition
Starred links: 1 amine or outer side, 2 acyl side, 3 side chain; linkers in the order of their positions; H or OH if unused. Non-standard residues stand in square brackets, D forms with d. Tyr(Me) = Omtyr, O-methyl-L-tyrosine, COc1ccc(C[C@H](N[*:1])C(=O)[*:2])cc1; NMeW = CN[C@@H](Cc1c[nH]c2ccccc12)C(=O)O
readout kind: pKi
For clarity, pKi is expressed as the negative log10 of concentration in mol/L.

binder	pKi
Ac-EDDSDV[NMeW]WGGADTD-NH2 (SMILES CC(=O)N[C@@H](CCC(=O)O)C(=O)N[C@@H](CC(=O)O)C(=O)N[C@@H](CC(=O)O)C(=O)N[C@@H](CO)C(=O)N[C@@H](CC(=O)O)C(=O)N[C@H](C(=O)N(C)[C@@H](Cc1c[nH]c2ccccc12)C(=O)N[C@@H](Cc1c[nH]c2ccccc12)C(=O)NCC(=O)NCC(=O)N[C@@H](C)C(=O)N[C@@H](CC(=O)O)C(=O)N[C@H](C(=O)N[C@@H](CC(=O)O)C(N)=O)[C@@H](C)O)C(C)C) [EDDSDV(N-Me-W)WGGADTD]	4.07
Ac-P[NMeW]AIVWGPTVSRED-NH2 (SMILES CC[C@H](C)[C@H](NC(=O)[C@H](C)NC(=O)[C@H](Cc1c[nH]c2ccccc12)N(C)C(=O)[C@@H]1CCCN1C(C)=O)C(=O)N[C@H](C(=O)N[C@@H](Cc1c[nH]c2ccccc12)C(=O)NCC(=O)N1CCC[C@H]1C(=O)N[C@H](C(=O)N[C@H](C(=O)N[C@@H](CO)C(=O)N[C@@H](CCCNC(=N)N)C(=O)N[C@@H](CCC(=O)O)C(=O)N[C@@H](CC(=O)O)C(N)=O)C(C)C)[C@@H](C)O)C(C)C) [P(N-Me-W)…]	6.08
Ac-EEDDSDVWWGGADTDYADGGED-NH2	6.45
Ac-EDDSDVWWGGADAD-NH2	6.32
Ac-AIVWGPTVSREDG-NH2	5.26
Ac-EDDSDVWW[dA]GADTD-NH2 [EDDSDVWWaGADTD]	5.06
Ac-EDDSDVWW[Tyr(Me)]GADTD-NH2 (SMILES COc1ccc(C[C@H](NC(=O)[C@H](Cc2c[nH]c3ccccc23)NC(=O)[C@H](Cc2c[nH]c3ccccc23)NC(=O)[C@@H](NC(=O)[C@H](CC(=O)O)NC(=O)[C@H](CO)NC(=O)[C@H](CC(=O)O)NC(=O)[C@H](CC(=O)O)NC(=O)[C@H](CCC(=O)O)NC(C)=O)C(C)C)C(=O)NCC(=O)N[C@@H](C)C(=O)N[C@@H](CC(=O)O)C(=O)N[C@H](C(=O)N[C@@H](CC(=O)O)C(N)=O)[C@@H](C)O)cc1) [EDDSDVWW(Omtyr)GADTD]	7.00
Ac-PWAIVWGPTVSREDGGDP-NH2	6.22

Return value of pKi for input "Ac-EEDDSDVWWGGADTDYADGGE-NH2" , no commentary.
6.45

Give reported pKi value for Ac-PW[dA]IVWGPTVSRED-NH2 [PWa…]
4.85

Give the measured pKi for "Ac-TETEFIAWGPTGD-NH2"
7.01
